Read-out: Macrophage colony-stimulating factor (MCSF), CSF1 (gene 1435)
MEASUREMENT NOTES: BSK_CASM3C_MCSF: BioMAP Diversity Plus: CASM3C Assay for Macrophage colony-stimulating factor (MCSF) Biomarker Activity (AID 2283044);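 note: M-CSF protein amount quantified by ELISA after 24 h exposure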
PROTOCOL CONDITIONS: primary human coronary artery smooth muscle cells; actives raise or lower the signal
The source made the active and inactive calls. Rule for the calls: active = hit-call score of the fitted dose curve at least 0.9, where 1 is the maximum; inactive = score below 0.9.
READOUT TYPE: AC50

Lab note: measured AC50 of Cc1ccc(OP(=O)(Oc2ccc(C)cc2)Oc2ccc(C)cc2)cc1 (tested in a mixture with another compound) was inactive

Lab note: measured AC50 of O=c1[nH]c(Cl)c(Cl)cc1Cl was inactive

Lab note: measured AC50 of O=[N+]([O-])C=Cc1ccccc1 was 20 µM (active)

Lab note: measured AC50 of COCC(=O)N(c1c(C)cccc1C)N1CCOC1=O was inactive

Lab note: measured AC50 of CCCOC(=O)c1ccccc1C(=O)OCCC was inactive

# per-item lookup of AC50; items listed below
1. CC1(C)[C@H](C(=O)O[C@H](C#N)c2cccc(Oc3ccccc3)c2)[C@@H]1C=C(Br)Br
2. CC(C)(C)C(=O)CCl
3. CC(C)(C)C(O)C(Oc1ccc(-c2ccccc2)cc1)n1cncn1 (stereo not given)

[A]
1. inactive
2. 0.65 µM (active)
3. 20 µM (active)

---

MEASUREMENT NOTES: ATG_EGR_CIS: Attagene CIS-FACTORIAL HepG2 Assay for human Early Growth Response 1 (EGR1) (AID 2282938)
PROTOCOL CONDITIONS: HepG2 Attagene CIS-FACTORIAL EGR reporter mRNA; actives raise or lower the signal
The source made the active and inactive calls. The calls were made as follows: active = hit-call score of the fitted dose curve at least 0.9, where 1 is the maximum; inactive = score below 0.9.
Could you please pick one outcome from this set? YES = active, NO = inactive

Below are worked cases with known answers.
[Q] What outcome does the record of this test show for CN(C)CCC#N ?
[A] NO

[Q] What outcome does the record of this test show for Nc1c(Cl)c(Cl)c(Cl)c(Cl)c1Cl ?
[A] NO

[Q] What outcome does the record of this test show for CC(C)C#N ?
[A] NO

[Q] What outcome does the record of this test show for CC1CCCC1.[C-]#[O+].[C-]#[O+].[C-]#[O+].[Mn] ?
[A] NO

Further cases:
[Q] What outcome does the record of this test show for CC=Cc1ccc2c(c1)OCO2 ?
[A] NO

---

Read-out: urokinase plasminogen activator (uPA), PLAU (gene 5328)
MEASUREMENT NOTES: BSK_BE3C_uPA: BioMAP Diversity Plus: BE3C Assay for urokinase plasminogen activator (uPA) Biomarker Activity (AID 2283038);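 for outcome: uPA protein level quantified by ELISA in cell cultures; uPA read one day after compound addition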
PROTOCOL CONDITIONS: primary human bronchial epithelial cells; actives raise or lower the signal
The source made the active and inactive calls. How the source made its calls: active means hit-call score of the fitted dose curve at least 0.9, where 1 is the maximum; inactive means score below 0.9.
Could you please pick one outcome from this set? true (1) for active, false (0) for inactive

Below are worked cases with known answers.
[Q] What outcome does the record of this test show for Nc1ccc(-c2ccc(N)c(N)c2)cc1N ?
[A] false (0)

[Q] What outcome does the record of this test show for CCCOC(=O)c1ccccc1C(=O)OCCC ?
[A] false (0)

[Q] What outcome does the record of this test show for CCC(C)c1cc([N+](=O)[O-])cc([N+](=O)[O-])c1OC(=O)C=C(C)C (configuration not stated) ?
[A] true (1)

Further cases:
[Q] What outcome does the record of this test show for O=S(=O)(c1ccccc1)c1ccccc1 ?
[A] false (0)

[Q] What outcome does the record of this test show for CCc1cc(C)cc(CC)c1-c1c(OC(=O)C(C)(C)C)n2n(c1=O)CCOCC2 ?
[A] false (0)

[Q] What outcome does the record of this test show for C=CCN(CC=C)C(=O)C(Cl)Cl ?
[A] false (0)

[Q] What outcome does the record of this test show for O=c1c2ccccc2c(=O)c2c1cc(Cl)c1[nH]c3c([nH]c12)c(Cl)cc1c(=O)c2ccccc2c(=O)c13 ?
[A] false (0)

[Q] What outcome does the record of this test show for COc1ccc(CO)cc1 ?
[A] false (0)

[Q] What outcome does the record of this test show for Cc1ccc(OP(=O)(Oc2ccc(C)cc2)Oc2ccc(C)cc2)cc1 (tested in a mixture with another compound) ?
[A] false (0)

[Q] What outcome does the record of this test show for COCC(=O)N(c1c(C)cccc1C)N1CCOC1=O ?
[A] false (0)

---

MEASUREMENT NOTES: ATG_NRF2_ARE_CIS: Attagene CIS-FACTORIAL HepG2 Assay for human Nuclear Factor Erythroid 2 Related Factor 2 (NFR2) response to Antioxidant Response Elements (ARE) (AID 2282992);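 for AC50: reporter mRNA level measured by RT-PCR and capillary electrophoresis fluorescence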
PROTOCOL CONDITIONS: HepG2 Attagene ARE/NRF2 reporter, transcription factor activity; actives raise or lower the signal
Procedure: ATG_CIS is a cell-based, multiplexed-readout assay that uses HepG2, a human liver cell line, with measurements taken at 24 hours after chemical dosing in a 24-well plate.ATG_NRF2_ARE_CIS is one of 52 assay component(s) measured or calculated from the ATG_CIS assay. […] This assay endpoint, ATG_NRF2_ARE_CIS, was analyzed with bidirectional fitting relative to DMSO as the negative control and baseline of activity. […]
Active and inactive are the calls of the source. The calls were made as follows: active = hit-call score of the fitted dose curve at least 0.9, where 1 is the maximum; inactive = score below 0.9.
READOUT TYPE: AC50

As a guide, the following entries are already answered.
Lab note: measured AC50 of O=[N+]([O-])c1ccc(Cl)cc1 was inactive

Lab note: measured AC50 of CN1C[C@H](C(=O)N[C@]2(C)O[C@@]3(O)[C@@H]4CCCN4C(=O)[C@H](Cc4ccccc4)N3C2=O)C=C2c3cccc4[nH]cc(c34)C[C@H]21 was 27 µM (active)

Lab note: measured AC50 of CC(C)[C@@H](C(=O)O[C@@H](C#N)c1cccc(Oc2ccccc2)c1)c1ccc(Cl)cc1 was inactive

Lab note: measured AC50 of CN1C(=O)CCS(=O)(=O)C1c1ccc(Cl)cc1 (configuration not stated) was inactive

Lab note: measured AC50 of ClC1=C(Cl)[C@]2(Cl)[C@@H]3[C@@H](Cl)[C@H](Cl)C[C@@H]3[C@@]1(Cl)C2(Cl)Cl was inactive

Lab note: measured AC50 of Cc1ccccc1CCl was inactive

Lab note: measured AC50 of CCOP(O)OCC was inactive

Lab note: measured AC50 of CC(=O)c1cc2c(cc1C)C(C)(C)C(C)CC2(C)C (configuration not stated) was 26.7 µM (active)

# per-item lookup of AC50; items listed below
1. c1ccc(P(c2ccccc2)c2ccccc2)cc1
2. O=C1C(Cl)=C(Cl)C(=O)C(Cl)=C1Cl
3. CCOC(=O)COc1ccc(Cl)cc1Cl
4. BrCBr
5. O=C(O)CCCc1ccc(N(CCCl)CCCl)cc1
6. COc1ccc(CO)cc1
7. c1ccc(Nc2ccc3ccccc3c2)cc1

[A]
21.5 µM (active)
48.7 µM (active)
inactive
inactive
inactive
inactive
37 µM (active)

# per-item lookup of AC50; items listed below
1. CC1OC(C)OC(C)O1 (configuration not stated)
2. CC[N+](=O)[O-]
3. O=[N+]([O-])O.O=[N+]([O-])O.[Cd]
4. C=Cc1cccc(CCl)c1
5. CN(N=O)c1ccccc1
6. Clc1ccc(-c2ccccc2)cc1
7. COC(=O)c1ccccc1S(=O)(=O)NC(=O)Nc1nc(C)cc(C)n1

[A]
1: inactive; 2: inactive; 3: 4.12 µM (active); 4: 22.4 µM (active); 5: inactive; 6: 149 µM (active); 7: inactive

---

MEASUREMENT NOTES: BSK_BT_Bcell_Proliferation: Viability Assessment in the BioMAP Diversity Plus: BT Assay for B cell Proliferation (AID 2284227)
PROTOCOL CONDITIONS: primary human B cells with PBMC
Calls of active or inactive are those of the source. Rule for the calls: active = hit-call score of the fitted dose curve at least 0.9, where 1 is the maximum; inactive = score below 0.9.
Could you please pick one outcome from this set? active, inactive

[Q] What outcome does the record of this test show for O=P1(NCCCl)OCCCN1CCCl (centres undefined) ?
[A] inactive

[Q] What outcome does the record of this test show for CC(=O)/C=C/c1ccccc1 ?
[A] active

[Q] What outcome does the record of this test show for O=[N+]([O-])C=Cc1ccccc1 ?
[A] active

[Q] What outcome does the record of this test show for Clc1ccc(-c2ccccc2)cc1 ?
[A] inactive

[Q] What outcome does the record of this test show for c1ccc(Nc2ccc3ccccc3c2)cc1 ?
[A] active

[Q] What outcome does the record of this test show for O=S(=O)(c1ccccc1)c1ccccc1 ?
[A] inactive

[Q] What outcome does the record of this test show for CC(C)COP(=O)(OCC(C)C)OCC(C)C ?
[A] inactive

[Q] What outcome does the record of this test show for Cc1ccc(OP(=O)(Oc2ccc(C)cc2)Oc2ccc(C)cc2)cc1 (tested in a mixture with another compound) ?
[A] inactive

[Q] What outcome does the record of this test show for Oc1cc(Cl)ccc1Cl ?
[A] inactive

---

TARGET OR SYSTEM: Myc proto-oncogene protein (Homo sapiens) (UniProt P01106)
Sequence (P01106 whole entry, looked up): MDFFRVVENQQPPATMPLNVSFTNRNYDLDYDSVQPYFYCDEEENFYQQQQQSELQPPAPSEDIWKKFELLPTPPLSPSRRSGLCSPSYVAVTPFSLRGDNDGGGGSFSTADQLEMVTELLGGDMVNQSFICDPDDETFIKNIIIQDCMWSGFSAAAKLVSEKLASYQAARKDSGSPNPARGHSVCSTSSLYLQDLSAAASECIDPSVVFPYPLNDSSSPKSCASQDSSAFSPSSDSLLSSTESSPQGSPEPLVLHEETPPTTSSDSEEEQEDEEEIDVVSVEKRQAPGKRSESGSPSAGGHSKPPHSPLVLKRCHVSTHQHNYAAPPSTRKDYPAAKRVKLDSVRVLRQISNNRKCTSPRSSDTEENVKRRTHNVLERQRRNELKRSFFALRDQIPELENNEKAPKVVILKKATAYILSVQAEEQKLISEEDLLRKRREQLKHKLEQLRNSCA
MEASUREMENT NOTES: ATG_Myc_CIS: Attagene CIS-FACTORIAL HepG2 Assay for human Myelocytomatosis (Myc) Proto-Oncogene Transcription Factor (AID 2282990)
PROTOCOL CONDITIONS: HepG2, Attagene cis-reporter transcription factor activity; actives raise or lower the signal
Activity calls are given as the source filed them. Rule for the calls: active = hit-call score of the fitted dose curve at least 0.9, where 1 is the maximum; inactive = score below 0.9.
READOUT TYPE: outcome

As a guide, the following entries are already answered.
Lab note: measured outcome of CCOP(O)OCC was inactive

Lab note: measured outcome of CC(C)[C@@H](C(=O)O[C@@H](C#N)c1cccc(Oc2ccccc2)c1)c1ccc(Cl)cc1 was inactive

Lab note: measured outcome of N#Cc1cc(I)c(O)c(I)c1 was inactive

Lab note: measured outcome of S=c1[nH]c2ccccc2[nH]1 was inactive

Lab note: measured outcome of CCCCNP(N)(N)=S was inactive

Lab note: measured outcome of Cc1ccc(OP(=O)(Oc2ccc(C)cc2)Oc2ccc(C)cc2)cc1 (tested in a mixture with another compound) was inactive

Lab note: measured outcome of CCOC(=O)C1OC1(C)c1ccccc1 (stereo not given) was inactive

Lab note: measured outcome of CCC[N+](=O)[O-] was inactive

# per-item lookup of outcome; items listed below
1. C[C@]12CC[C@H]3[C@@H](CC[C@@]45O[C@@H]4C(O)=C(C#N)C[C@]35C)[C@@H]1CC[C@@H]2O
2. N#Cc1cccc(C#N)c1
3. CCCCCc1cc(O)cc(O)c1
4. C#CC1(O)CCCCC1
5. Nc1cc(Cl)cc(Cl)c1
6. CCc1cccc(C)c1N(C(=O)CCl)[C@@H](C)COC
7. CC(C)(C)C(=O)CCl
8. C=CC(=O)OC

[A]
1. inactive
2. inactive
3. inactive
4. inactive
5. inactive
6. inactive
7. inactive
8. inactive

# per-item lookup of outcome; items listed below
1. COc1cc(OC)c(OC)cc1C=O
2. Cc1ccccc1CCl
3. CC1(C)[C@H](C(=O)O[C@H](C#N)c2cccc(Oc3ccccc3)c2)[C@@H]1C=C(Br)Br
4. CN(C)N
5. C[C@]12CC[C@H](O)C[C@H]1CC[C@@H]1[C@@H]2C[C@@H](O)[C@]2(C)[C@@H](C3=CC(=O)OC3)CC[C@]12O
6. C=CC(=O)OCCO
7. CCCCCCCCCCCCCCCC[N+](C)(C)C
8. CNC(=N[N+](=O)[O-])NCC1CCOC1 (stereo not given)

[A]
1. inactive
2. inactive
3. inactive
4. inactive
5. inactive
6. inactive
7. inactive
8. inactive

# per-item lookup of outcome; items listed below
1. CCCC=NO
2. O=C(O)C(Br)Br
3. COC(C)(C)CCC[C@H](C)C/C=C/C(C)=C/C(=O)OC(C)C
4. c1ccc(P(c2ccccc2)c2ccccc2)cc1
5. CC(=O)C=Cc1ccccc1

[A]
["inactive", "inactive", "inactive", "inactive", "inactive"]

# per-item lookup of outcome; items listed below
1. CC(C)C#N
2. O=C(O)c1cc[c]([Hg][Cl])cc1
3. O=[N+]([O-])c1cc([N+](=O)[O-])c2ccccc2c1
4. N#CCCCCC#N
5. CCC1CCC(=O)O1 (stereo not given)
6. N#CCCCl
7. CN(C)CCC#N

[A]
inactive
inactive
inactive
inactive
inactive
inactive
inactive
